assay: recombinant UMI read abundance after kanamycin selection (control-corrected) (log10(CPM+1)); higher = more efficient recombination; extreme values may be limits of the assay; sequences stand for … in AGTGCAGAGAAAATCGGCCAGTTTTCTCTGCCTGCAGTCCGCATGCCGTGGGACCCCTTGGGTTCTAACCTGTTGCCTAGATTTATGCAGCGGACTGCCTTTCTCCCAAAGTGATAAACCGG…AGGTTGGTTTCACT; site = the 11-nt donor;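 also: IS621 bridge recombinase in Escherichia coli cells against a fixed T5 target plasmid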
Categorize each record by its recombinant UMI read abundance (log10) using group 1 = under 0.003, group 2 = from 0.003 up to 0.4, group 3 = 0.4 and over

# sequence_text, classification
measured = [
    ("CGTCTGGCATGGACCGGTTTTCCCGGTAATCCGTATTTGCT (site CGTTTGGCTAG)", "group 1"),
    ("CCAGGTTCATGGACCGGTTTTCCCGGTAATCCGTATTTGAT (site CCAGGTTCTAT)", "group 3"),
    ("TCAGGCGCATGGACCGGTTTTCCCGGTAATCCGTATTTGGT (site TCAGGCGCTAC)", "group 2"),
    ("GCGAACCCATGGACCGGTTTTCCCGGTAATCCGTATTTGGG (site GCGAACCCTCC)", "group 2"),
    ("GCAGAGTCATGGACCGGTTTTCCCGGTAATCCGTATTTGTA (site GCAGAGTCTTA)", "group 3"),
    ("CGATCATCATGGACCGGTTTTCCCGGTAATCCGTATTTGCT (site CGAACATCTGG)", "group 1"),
    ("AAATCTACATGGACCGGTTTTCCCGGTAATCCGTATTTGTG (site ATATCTACTCA)", "group 2"),
    ("CAATGCTCATGGACCGGTTTTCCCGGTAATCCGTATTTGAA (site CAAGGCTCTTT)", "group 2"),
    ("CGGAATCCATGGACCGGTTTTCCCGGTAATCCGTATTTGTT (site CCGAATCCTTA)", "group 1"),
    ("CTGTTAGCATGGACCGGTTTTCCCGGTAATCCGTATTTGTG (site CAGTTAGCTCA)", "group 3"),
    ("CGTTCGACATGGACCGGTTTTCCCGGTAATCCGTATTTGAG (site CGTTAGACTCT)", "group 2"),
    ("TTGACTCCATGGACCGGTTTTCCCGGTAATCCGTATTTGCT (site TTGACTCCTAG)", "group 2"),
    ("AATTATGCATGGACCGGTTTTCCCGGTAATCCGTATTTGGA (site AATTAGGCTTC)", "group 2"),
    ("AACCTCCCATGGACCGGTTTTCCCGGTAATCCGTATTTGGC (site AACCTCCCTGC)", "group 1"),
    ("CTCGCTCCATGGACCGGTTTTCCCGGTAATCCGTATTTGAG (site CTCGCTCCTCT)", "group 2"),
    ("CCCCGCCCATGGACCGGTTTTCCCGGTAATCCGTATTTGTC (site CCCCGCCCTGA)", "group 1"),
    ("GATACGTCATGGACCGGTTTTCCCGGTAATCCGTATTTGTT (site GGTACGTCTAA)", "group 2"),
    ("TCATACTCATGGACCGGTTTTCCCGGTAATCCGTATTTGAA (site TCATACTCTTA)", "group 1"),
    ("GTTCGAGCATGGACCGGTTTTCCCGGTAATCCGTATTTGAA (site GTTCGAGCTTT)", "group 3"),
    ("AGCGAGTCATGGACCGGTTTTCCCGGTAATCCGTATTTGAT (site AGCGAGTCTAT)", "group 3"),
]
